- System: U251 CNS
- Protocol Description: NCI tumour cell line growth inhibition, 48 h
The following molecules are shown together with reported TGI values.

Worked examples follow.
COc1ccc(CCCNC(=O)c2cc(OC)c(OC)cc2CCO)cc1OC
> 100 µM
CC1=C(c2ccccc2)NC(=S)C(C)C(c2ccccc2)=N1 (configuration not stated)
> 100 µM
OC(c1ccc(C(F)(F)F)cc1)C(F)(F)c1nc2ccccc2o1 (configuration not stated)
> 100 µM
CO/N=C(\C)c1ccc(Nc2cc(-c3ccccc3)nc3ccc(OC)cc23)cc1
4.79 µM
O=[P+](O)c1ccsc1
> 100 µM

Query :: Form: Entry = "N#CC(=N)c1ncn(-c2ccc(N)cc2)c1N" | System = U251 CNS | TGI = ____
Result :: > 100 µM

Query :: For "O=c1[nH]nc(-c2ccccc2)n1/N=C/c1cccs1" then?
Result :: > 100 µM

Query :: For "S=C1CCSc2c(ccc3ccccc23)N1" then?
Result :: > 100 µM

Query :: For "Cc1csc(/C=C/C(=O)c2nnn(-c3ccnc4c(C(F)(F)F)cccc34)c2C)c1" then?
Result :: > 100 µM

Query :: For Nc1nc2c(ncn2C2C=CC(CO)C2)c(=O)[nH]1 (configuration not stated) then?
Result :: > 100 µM

Query :: For "Cc1c(N2CCN(C)CC2)nc2ccc(Cl)cc2c1-c1ccccc1" then?
Result :: 33.1 µM

Query :: For NC(Cc1ccc(N(CCCl)CCCl)cc1)C(=O)NC(CCC(=O)O)C(=O)O (configuration not stated) then?
Result :: > 100 µM

====

The following molecules are shown together with reported GI50 values.
- Tested on: SK-MEL-28 melanoma
- Protocol Description: NCI tumour cell line growth inhibition, 48 h

O=C(O)C1(C(=O)O)CCC1.[NH2-].[NH2-].[Pt+2]
174 µM
Cc1cc(N2CCOCC2)nc(N[C@@H]2CCC[C@H](Nc3ccnc4cc(Cl)ccc34)C2)n1
2.01 µM
O=Nc1ccc(NO)c2ccccc12
15.1 µM
S=C(Nc1ccc(-c2nc3ccccc3[nH]2)cc1)Nc1ccc(-c2nc3ccccc3[nH]2)cc1
> 100 µM

Query :: I'd like to know its GI50. The molecule in question is "NCCCCCCCn1c2c(c3ccccc3c1=O)C(=O)c1ccccc1-2"
Result :: 1.75 µM

====

The following compounds are shown together with reported TGI values.
- Test system: NCI-H460 lung
- Protocol Description: NCI tumour cell line growth inhibition, 48 h

CC(C)(C)c1cc(-n2c(-c3ccc(Cl)cc3)nc3cc(C(=O)Nc4ccc(Cl)cc4)ccc32)n[nH]1
> 100 µM
COc1ccc(CCCNC(=O)c2cc(OC)c(OC)cc2CCO)cc1OC
> 100 µM
O=C(Nc1ccc2[nH]c(C(=O)N3CC(CCl)c4c3cc([N+](=O)[O-])c3ccccc43)cc2c1)Nc1ccc2[nH]c(C(=O)N3CC(CCl)c4c3cc([N+](=O)[O-])c3ccccc43)cc2c1 (stereo unspecified)
> 100 µM
CC1CCCC(C(O)CC2CC(=O)NC(=O)C2)C1O (stereo unspecified)
> 100 µM
NCCCC[C@H](N)C(=O)Nc1ccc(-c2nc3ccccc3s2)cc1
34.9 µM

Query :: I'd like to know its TGI. The compound in question is COC(=O)C1(C#N)C(C)(C)N=C(c2ccccc2)C12CCCCC2 (stereo unspecified)
Result :: > 100 µM

Query :: For Cn1cnc([N+](=O)[O-])c1Sc1nc(N)nc2c1ncn2C1CC(O)C(CO)O1 (stereo unspecified) then?
Result :: > 40 µM

Query :: For "CNC(=O)c1ccccc1Nc1nc(Nc2cc(OC)c(OC)c(OC)c2)ncc1Br" then?
Result :: 1.37 µM

Query :: For C[As](C)SCC(COC(=O)C(Cl)c1ccccc1)OC(=O)C(Cl)c1ccccc1 (stereo unspecified) then?
Result :: 33.6 µM

Query :: For "O=c1[nH]c(=S)[nH]c2c1CN(CCCN1CCOCC1)CN2" then?
Result :: 87.2 µM

Query :: For "Clc1ccc(-c2c3c(nn2-c2ccccn2)CCc2ccccc2-3)cc1Cl" then?
Result :: > 100 µM
